Sourced from patent US20240116922A1

solubility kinetic at 24 h values for the compounds below.
# testName: Kinetic solubility assay (CLND), pH 6.8
# Format: physicochemical
# studyConditions: aqueous buffer, kinetic from dmso stock; potassium phosphate buffer pH 6.8, 2% DMSO, 24 hours at ambient temperature

[
  {
    "compound": "CC(C)Oc1nc2nc([C@@]34CC[C@@](C)(C3)OC4)cn2cc1C(=O)Nc1cccn(C2CC2)c1=O (single isomer, unassigned)",
    "solubility kinetic at 24 h, µg/mL": 22.3
  },
  {
    "compound": "CC(C)Oc1nc2nc([C@@]34CC[C@@](C)(C3)OC4)cn2cc1C(=O)Nc1cccn([C@@H]2C[C@H]2F)c1=O (single isomer, unassigned)",
    "solubility kinetic at 24 h, µg/mL": 48.8
  },
  {
    "compound": "CC(C)Oc1nc2nc(C34CCC(C)(CC3)OC4)cn2cc1C(=O)Nc1cccc(C(F)F)n1 [Comparator 5A, reference compound]",
    "solubility kinetic at 24 h, µg/mL": 1.5
  },
  {
    "compound": "O=C(Nc1cccn(C2CC2)c1=O)c1cn2cc(C34COC(C3)C4)nc2cc1OC1CCC1",
    "solubility kinetic at 24 h, µg/mL": 64.4
  }
]

###

Catalogue of solubility kinetic at 24 h values
# testName: Kinetic solubility assay (CLND), pH 6.8
# Assay type: physicochemical
# studyConditions: aqueous buffer, kinetic from dmso stock; potassium phosphate buffer pH 6.8, 2% DMSO, 24 hours at ambient temperature
observable: solubility kinetic at 24 h (µg/mL)

[
  {
    "molecule": "CC(C)Oc1nc2nc([C@]34CC[C@](C)(C3)OC4)cn2cc1C(=O)Nc1cccn([C@H]2CC23CC3)c1=O (single isomer, unassigned) [Example 152]",
    "experimentalResult": 24.9
  },
  {
    "molecule": "CC[C@H](C)Oc1nc2nc(C34CCC(CF)(C3)OC4)cn2cc1C(=O)Nc1cccn(C2CC2)c1=O (some centres unmarked) [Example 56]",
    "experimentalResult": 67.5
  },
  {
    "molecule": "CC(C)Oc1cc2nc([C@]34CC[C@](C)(C3)OC4)cn2cc1C(=O)Nc1cccn([C@H]2C[C@@H]2F)c1=O (single isomer, unassigned) [Example 119]",
    "experimentalResult": 79
  },
  {
    "molecule": "CC(C)Oc1nc2nc([C@]34CC[C@](C)(C3)OC4)cn2cc1C(=O)Nc1cccn([C@H]2C[C@@H]2C)c1=O (single isomer, unassigned) [Example 142]",
    "experimentalResult": 37
  },
  {
    "molecule": "CC(C)Oc1cc2nc(C34COC(C)(C3)C4)cn2cc1C(=O)Nc1cccn([C@@H]2C[C@H]2C)c1=O [Example 139]",
    "experimentalResult": 38.4
  },
  {
    "molecule": "CC[C@@H](C)Oc1cc2nc(C34COC(CF)(C3)C4)cn2cc1C(=O)Nc1cccn(C2CC2)c1=O (single isomer, unassigned) [Example 14]",
    "experimentalResult": 75.7
  },
  {
    "molecule": "C[C@@H](CF)Oc1cc2nc(C34COC(C)(C3)C4)cn2cc1C(=O)Nc1cccn(C2CC2)c1=O [Example 28]",
    "experimentalResult": 62.6
  },
  {
    "molecule": "CC(C)Oc1cc2nc([C@@]34CC[C@@](C)(C3)OC4)cn2cc1C(=O)Nc1cccn(C2CC2F)c1=O (mixture of isomers) [Example 99]",
    "experimentalResult": 62
  }
]
